biological target: Mitotic checkpoint serine/threonine-protein kinase BUB1 (Homo sapiens, UniProt O43683); note: in the data inactive means no Kd found up to 30 µM
Sequence (O43683 whole entry): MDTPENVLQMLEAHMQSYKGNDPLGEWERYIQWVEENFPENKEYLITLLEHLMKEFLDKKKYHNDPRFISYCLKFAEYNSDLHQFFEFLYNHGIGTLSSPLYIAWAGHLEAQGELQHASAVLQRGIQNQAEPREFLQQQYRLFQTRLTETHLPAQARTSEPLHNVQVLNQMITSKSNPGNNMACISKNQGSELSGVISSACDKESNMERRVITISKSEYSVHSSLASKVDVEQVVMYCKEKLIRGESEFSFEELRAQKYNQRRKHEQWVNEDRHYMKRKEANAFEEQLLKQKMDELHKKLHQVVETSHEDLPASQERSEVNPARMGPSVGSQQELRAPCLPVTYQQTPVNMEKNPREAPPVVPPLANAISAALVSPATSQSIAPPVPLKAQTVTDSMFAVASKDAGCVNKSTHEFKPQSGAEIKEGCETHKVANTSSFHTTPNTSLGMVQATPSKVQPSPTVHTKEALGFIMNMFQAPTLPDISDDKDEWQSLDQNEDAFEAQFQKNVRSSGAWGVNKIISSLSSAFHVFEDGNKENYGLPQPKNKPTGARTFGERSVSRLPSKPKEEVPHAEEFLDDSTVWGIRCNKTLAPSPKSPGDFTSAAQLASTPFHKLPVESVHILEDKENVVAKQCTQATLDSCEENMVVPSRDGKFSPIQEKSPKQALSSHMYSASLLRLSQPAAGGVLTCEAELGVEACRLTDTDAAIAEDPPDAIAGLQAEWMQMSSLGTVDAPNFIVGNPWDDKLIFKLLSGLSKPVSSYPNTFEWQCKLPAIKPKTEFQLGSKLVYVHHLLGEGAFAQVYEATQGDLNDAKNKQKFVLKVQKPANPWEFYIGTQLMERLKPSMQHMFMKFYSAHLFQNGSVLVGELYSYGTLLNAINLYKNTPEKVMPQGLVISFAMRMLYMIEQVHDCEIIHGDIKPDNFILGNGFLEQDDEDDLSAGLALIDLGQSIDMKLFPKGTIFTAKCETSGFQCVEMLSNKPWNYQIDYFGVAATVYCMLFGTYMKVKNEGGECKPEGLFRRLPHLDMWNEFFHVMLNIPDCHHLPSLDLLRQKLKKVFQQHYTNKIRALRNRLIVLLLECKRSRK
Counter-ions that a name gives are not always drawn. Activity calls are given as the source filed them.
Outcomes: True (active), False (inactive)

>  <Compound>
FC(F)(F)c1ccc(/C=C/c2nc(COc3ccc(CCCCn4ccnn4)cc3)co2)cc1 [MUBRITINIB]

>  <Label Class>
False

$$$$
>  <Compound>
Cn1cnc2c(F)c(Nc3ccc(Br)cc3F)c(C(=O)NOCCO)cc21 [BINIMETINIB]

>  <Label Class>
False

$$$$
>  <Compound>
CCS(=O)(=O)c1cccc(-c2cc(C(=O)NC3CCN(C)CC3)c(C)c3[nH]c4ncc(C)cc4c23)c1 [TAK-901]

>  <Label Class>
False

$$$$
>  <Compound>
O=C(Nc1c[nH]nc1-c1nc2cc(CN3CCOCC3)ccc2[nH]1)NC1CC1 [AT-9283]

>  <Label Class>
True

$$$$
>  <Compound>
CC(C)(C)c1nc(-c2cccc(NS(=O)(=O)c3c(F)cccc3F)c2F)c(-c2ccnc(N)n2)s1 [DABRAFENIB]

>  <Label Class>
False

$$$$
>  <Compound>
COc1c(OCCCN2CCOCC2)ccc2c1N=C(NC(=O)c1cnc(N)nc1)N1CCN=C21 [COPANLISIB]

>  <Label Class>
False

$$$$
>  <Compound>
COc1cc2c(Nc3ccc(Cl)c(Cl)c3F)ncnc2cc1OC[C@@H]1C[C@@H]2CN(C)C[C@@H]2C1 [TESEVATINIB]

>  <Label Class>
False

$$$$
>  <Compound>
Cn1ncc(Cl)c1-c1cc(C(=O)N[C@H](CN)Cc2ccc(F)c(F)c2)oc1Cl [UPROSERTIB]

>  <Label Class>
False

$$$$
>  <Compound>
CCn1c(C(=O)N(C2CC2)C2CC2)cc2c3c(ncn3C)c(Nc3cc(C)n(C)n3)nc21 [BMS-911543]

>  <Label Class>
False

$$$$
>  <Compound>
C[C@@H](Oc1cc(-n2cnc3ccc(CN4CCN(C)CC4)cc32)sc1C(N)=O)c1ccccc1C(F)(F)F [GSK-461364]

>  <Label Class>
False

$$$$
>  <Compound>
CN1CCN(CCOc2cc(OC3CCOCC3)c3c(Nc4c(Cl)ccc5c4OCO5)ncnc3c2)CC1 [SARACATINIB]

>  <Label Class>
False

$$$$
>  <Compound>
CC(C)c1cc(CNc2nc(Nc3cc(C4CC4)[nH]n3)cc(N3CCN(C)CC3)n2)on1 [XL-228]

>  <Label Class>
False

$$$$
>  <Compound>
Cc1cc(Nc2ncnc3ccc(NC4=NC(C)(C)CO4)cc23)ccc1Oc1ccn2ncnc2c1 [TUCATINIB]

>  <Label Class>
False

$$$$
>  <Compound>
CO[C@H]1C[C@@H]2CC[C@@H](C)[C@@](O)(O2)C(=O)C(=O)N2CCCC[C@H]2C(=O)O[C@H]([C@H](C)C[C@@H]2CC[C@@H](O)[C@H](OC)C2)CC(=O)[C@H](C)/C=C(\C)[C@@H](O)[C@@H](OC)C(=O)[C@H](C)C[C@H](C)/C=C/C=C/C=C/1C [SIROLIMUS]

>  <Label Class>
False

$$$$
>  <Compound>
C=CC(=O)N1CCC[C@H](n2c(=O)n(-c3ccc(Oc4ccccc4)cc3)c3c(N)ncnc32)C1

>  <Label Class>
False

$$$$
>  <Compound>
CCS(=O)(=O)N1CCN(c2ccc(Nc3ncc(C(N)=O)c(NC4CC4)n3)cc2)CC1 [Cerdulatinib Hydrochloride]

>  <Label Class>
True

$$$$
>  <Compound>
CNC(=O)c1ccccc1Sc1ccc2c(/C=C/c3ccccn3)n[nH]c2c1 [AXITINIB]

>  <Label Class>
False

$$$$
>  <Compound>
O=C(Nc1cc(C(F)(F)F)cc(C(F)(F)F)c1)c1cc(Cl)ccc1O [IMD-0354]

>  <Label Class>
False

$$$$
>  <Compound>
Cc1[nH]c(/C=C2\C(=O)Nc3ccccc32)c(C)c1CCC(=O)O [ORANTINIB]

>  <Label Class>
False

$$$$
>  <Compound>
Cc1nc2cc(-c3nn(C(C)C)c4ncnc(N)c34)ccc2o1

>  <Label Class>
False

$$$$
>  <Compound>
Cc1nc2cc(-n3ncc(C(=O)c4cc5ccccc5[nH]4)c3N)ccc2[nH]1 [FGFR INHIBITOR DEBIO 1347]

>  <Label Class>
False

$$$$
>  <Compound>
Cc1csc(-c2nnc(Nc3ccc(Oc4ncccc4-c4ccnc(N)n4)cc3)c3ccccc23)c1 [AMG-900]

>  <Label Class>
False

$$$$
>  <Compound>
CC(=O)c1cnc2ccc(-c3cc(Cl)c(O)c(Cl)c3)nc2c1N[C@H]1CC[C@H](CN(C)C)CC1

>  <Label Class>
False

$$$$
>  <Compound>
O=C(Nc1nc2cccc(-c3ccc(CN4CCS(=O)(=O)CC4)cc3)n2n1)C1CC1 [FILGOTINIB]

>  <Label Class>
False

$$$$
>  <Compound>
Cn1cc(C2=C(c3cn(C4CCN(Cc5ccccn5)CC4)c4ccccc34)C(=O)NC2=O)c2ccccc21 [ENZASTAURIN]

>  <Label Class>
False

$$$$
